# TARGET_OR_SYSTEM: human recombinant COX-1 (Homo sapiens, UniProt P23219)
# Sequence (P23219 24-599): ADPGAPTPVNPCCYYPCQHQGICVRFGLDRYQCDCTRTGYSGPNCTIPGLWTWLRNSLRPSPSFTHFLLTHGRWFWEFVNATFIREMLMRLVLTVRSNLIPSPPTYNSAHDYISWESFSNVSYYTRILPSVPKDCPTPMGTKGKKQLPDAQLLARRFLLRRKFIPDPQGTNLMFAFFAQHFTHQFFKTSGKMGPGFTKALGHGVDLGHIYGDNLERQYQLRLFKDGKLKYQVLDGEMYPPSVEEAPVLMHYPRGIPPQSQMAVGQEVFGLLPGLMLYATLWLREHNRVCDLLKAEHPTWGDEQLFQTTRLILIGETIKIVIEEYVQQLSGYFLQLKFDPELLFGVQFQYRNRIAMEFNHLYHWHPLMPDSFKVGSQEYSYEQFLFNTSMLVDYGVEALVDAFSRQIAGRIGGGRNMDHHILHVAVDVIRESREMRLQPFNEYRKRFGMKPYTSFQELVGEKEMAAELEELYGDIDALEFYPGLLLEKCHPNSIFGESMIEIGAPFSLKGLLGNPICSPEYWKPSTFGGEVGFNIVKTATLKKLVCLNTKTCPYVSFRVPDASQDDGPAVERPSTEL
# PROTOCOL_DETAILS: COX-1
# Format: biochemical
# CONDITION_LABEL: read-out: COX-1% (percentage of inhibition of COX-1)
PROPERTY: inhibition at 40 µg/mL (%)
One number for each entry, in %.

COMPOUND	RESULT_UNIT	inhibition at 40 µg/mL
O=C(c1ccccc1)C1C(c2cc3ccccc3o2)C2CSCN2[C@@]12C(=O)Nc1ccc(Cl)cc12 (stereo partly shown)	%	57.4
O=C(c1ccc(C(F)(F)F)cc1)C1C(c2cc3ccccc3o2)C2C3CCCCC3CN2[C@@]12C(=O)Nc1ccc(Br)cc12 (stereo partly shown)	%	12.3
COc1ccc2c(c1)c(CC(=O)O)c(C)n2C(=O)c1ccc(Cl)cc1 [Indomethacin, reference compound]	%	87.3

Below are 4 compounds. Give each one its inhibition at 40 µg/mL.
1. O=C(c1ccc(F)cc1)C1C(c2cc3ccccc3o2)C2C3CCCCC3CN2[C@@]12C(=O)Nc1ccc(Cl)cc12 (stereo partly shown)
2. O=C(c1ccc(Br)cc1)C1C(c2cc3ccccc3o2)C2CSCN2[C@@]12C(=O)Nc1ccc(Br)cc12 (stereo partly shown)
3. C[C@H]1[C@H](C)CC[C@]2(C)CC[C@]3(C)C(=CC[C@@H]4[C@@]5(C)CC[C@@H](O)[C@](C)(C(=O)O)[C@@H]5CC[C@]43C)[C@H]12 [β-Boswellic acid, reference compound]
4. O=C(c1ccc(C(F)(F)F)cc1)C1C(c2cc3ccccc3o2)C2CSCN2[C@@]12C(=O)Nc1ccc(Cl)cc12 (stereo partly shown)

A:
1: 19.8; 2: 41.7; 3: 64.8; 4: 47.7

* * *

# TARGET_OR_SYSTEM: human recombinant COX-1 (Homo sapiens)
# PROTOCOL_DETAILS: COX-1
# Type: biochemical
# CONDITION_LABEL: defined as IC50 COX-1/IC50 COX-2
PROPERTY: Selectivity IC50 COX-1/IC50 COX-2 (%)
Numbers only, in %.

The examples below pair each entry with its known result.
COMPOUND	Selectivity IC50 COX-1/IC50 COX-2 (%)
CC(=O)O[C@@H]1CC[C@@]2(C)[C@@H](CC[C@]3(C)[C@@H]2C(=O)C=C2[C@@H]4[C@@H](C)[C@H](C)CC[C@]4(C)CC[C@]23C)[C@@]1(C)C(=O)O [Acetyl-keto boswellic acid, reference compound]	10
CC(=O)O[C@@H]1CC[C@@]2(C)[C@@H](CC[C@]3(C)[C@@H]2CC=C2[C@@H]4[C@@H](C)[C@H](C)CC[C@]4(C)CC[C@]23C)[C@@]1(C)C(=O)O [Acetyl-β-boswellic acid, reference compound]	11
O=C(c1ccc(Br)cc1)C1C(c2cc3ccccc3o2)C2CSCN2[C@@]12C(=O)Nc1ccc(Br)cc12 (stereo partly drawn)	42
O=C(c1ccc(Br)cc1)C1C(c2cc3ccccc3o2)C2CSCN2[C@@]12C(=O)Nc1ccc(Cl)cc12 (stereo partly drawn)	41
CC(=O)O[C@@H]1CC[C@@]2(C)[C@@H](CC[C@]3(C)[C@@H]2CC=C2[C@@H]4CC(C)(C)CC[C@]4(C)CC[C@]23C)[C@@]1(C)C(=O)O [Acetyl-α-boswellic acid, reference compound]	10

Response field Selectivity IC50 COX-1/IC50 COX-2 (human recombinant COX-1 (Homo sapiens)) for item O=C(c1ccc(Cl)cc1)C1C(c2cc3ccccc3o2)C2CSCN2[C@@]12C(=O)Nc1ccc(Cl)cc12 (stereo partly drawn) : 45

* * *

# TARGET_OR_SYSTEM: human recombinant COX-2 (Homo sapiens, UniProt P35354)
# Sequence (P35354 18-604): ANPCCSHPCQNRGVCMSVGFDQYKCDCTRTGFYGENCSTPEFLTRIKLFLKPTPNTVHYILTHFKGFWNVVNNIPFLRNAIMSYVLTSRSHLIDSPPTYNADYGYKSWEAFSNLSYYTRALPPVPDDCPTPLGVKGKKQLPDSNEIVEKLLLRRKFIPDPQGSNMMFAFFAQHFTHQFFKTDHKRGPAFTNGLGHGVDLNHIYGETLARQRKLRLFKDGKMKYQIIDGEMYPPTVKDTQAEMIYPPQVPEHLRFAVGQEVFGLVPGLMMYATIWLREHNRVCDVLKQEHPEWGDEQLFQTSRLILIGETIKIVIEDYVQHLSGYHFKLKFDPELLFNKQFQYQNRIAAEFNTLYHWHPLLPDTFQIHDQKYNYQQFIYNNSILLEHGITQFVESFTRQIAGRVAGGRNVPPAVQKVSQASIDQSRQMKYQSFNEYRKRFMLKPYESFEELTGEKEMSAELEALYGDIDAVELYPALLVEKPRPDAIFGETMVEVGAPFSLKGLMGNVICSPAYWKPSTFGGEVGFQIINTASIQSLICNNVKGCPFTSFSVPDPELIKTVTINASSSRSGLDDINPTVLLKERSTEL
# PROTOCOL_DETAILS: COX-2
# Assay type: biochemical
# CONDITION_LABEL: read-out: COX-2% (percentage of inhibition of COX-2)
Parameter class (string): assigned from measured inhibition at 40 µg/mL. Ranges: bin A = under 6%, bin B = from 6% up to 10%, bin C = 10% and over

Please review the following examples before continuing.
MOLECULE	DISCRETE_LABEL
O=C(c1ccc(F)cc1)C1C(c2cc3ccccc3o2)C2C3CCCCC3CN2[C@@]12C(=O)Nc1ccc(Cl)cc12 (stereo partly drawn)	bin B
O=C(c1ccc(C(F)(F)F)cc1)C1C(c2cc3ccccc3o2)C2C3CCCCC3CN2[C@@]12C(=O)Nc1ccc(Br)cc12 (stereo partly drawn)	bin A
O=C(c1ccccc1)C1C(c2cc3ccccc3o2)C2CSCN2[C@@]12C(=O)Nc1ccc(Cl)cc12 (stereo partly drawn)	bin C
C[C@H]1[C@H](C)CC[C@]2(C)CC[C@]3(C)C(=CC[C@@H]4[C@@]5(C)CC[C@@H](O)[C@](C)(C(=O)O)[C@@H]5CC[C@]43C)[C@H]12 [β-Boswellic acid, reference compound]	bin B
O=C(c1ccc(F)cc1)C1C(c2cc3ccccc3o2)C2CSCN2[C@@]12C(=O)Nc1ccc(Cl)cc12 (stereo partly drawn)	bin B
O=C(c1ccc(Br)cc1)C1C(c2cc3ccccc3o2)C2C3CCCCC3CN2[C@@]12C(=O)Nc1ccc(Br)cc12 (stereo partly drawn)	bin A
O=C(c1ccc(C(F)(F)F)cc1)C1C(c2cc3ccccc3o2)C2CSCN2[C@@]12C(=O)Nc1ccc(Cl)cc12 (stereo partly drawn)	bin C
O=C(c1ccc(F)cc1)C1C(c2cc3ccccc3o2)C2C3CCCCC3CN2[C@@]12C(=O)Nc1ccc(Br)cc12 (stereo partly drawn)	bin A

Q: Band for O=C(c1ccc(Br)cc1)C1C(c2cc3ccccc3o2)C2CSCN2[C@@]12C(=O)Nc1ccc(Cl)cc12 (stereo partly drawn) ?
A: bin C

* * *

# TARGET_OR_SYSTEM: human recombinant COX-1 (Homo sapiens)
# PROTOCOL_DETAILS: COX-1
# Format: biochemical
# CONDITION_LABEL: read-out: COX-1% (percentage of inhibition of COX-1)
Label satisfied when inhibition at 40 µg/mL is at or above 30%; anything below gets not satisfied.

Please review the following examples before continuing.
> print(dat)
                                   molecule  discrete.label
1  O=C(c1ccc(Br)cc1)C1C(c2cc3ccccc3o2)C2C3CCCCC3CN2[C@@]12C(=O)Nc1ccc(Br)cc12 (stereo partly drawn)   not satisfied
2  O=C(c1ccc(F)cc1)C1C(c2cc3ccccc3o2)C2CSCN2[C@@]12C(=O)Nc1ccc(Cl)cc12 (stereo partly drawn)       satisfied
3  O=C(c1ccc(F)cc1)C1C(c2cc3ccccc3o2)C2C3CCCCC3CN2[C@@]12C(=O)Nc1ccc(Br)cc12 (stereo partly drawn)   not satisfied
4  O=C(c1ccc(Br)cc1)C1C(c2cc3ccccc3o2)C2CSCN2[C@@]12C(=O)Nc1ccc(Cl)cc12 (stereo partly drawn)       satisfied

Q: Confirm if inhibition at 40 µg/mL reported for the molecule O=C(c1ccc(Cl)cc1)C1C(c2cc3ccccc3o2)C2CSCN2[C@@]12C(=O)Nc1ccc(Cl)cc12 (stereo partly drawn) is 30% or above.
A: satisfied

Q: Confirm if inhibition at 40 µg/mL reported for the molecule O=C(c1ccc(Br)cc1)C1C(c2cc3ccccc3o2)C2C3CCCCC3CN2[C@@]12C(=O)Nc1ccc(Cl)cc12 (stereo partly drawn) is 30% or above.
A: satisfied

* * *

# TARGET_OR_SYSTEM: human recombinant COX-1 (Homo sapiens)
# PROTOCOL_DETAILS: COX-1
# Assay type: biochemical
# CONDITION_LABEL: defined as IC50 COX-1/IC50 COX-2
PROPERTY: Selectivity IC50 COX-1/IC50 COX-2 (%)
Numbers only, in %.

The examples below pair each entry with its known result.
MOLECULE	TARGET_OR_SYSTEM	Selectivity IC50 COX-1/IC50 COX-2 [%]
O=C(c1ccccc1)C1C(c2cc3ccccc3o2)C2CSCN2[C@@]12C(=O)Nc1ccc(Cl)cc12 (stereo partly drawn) [Compound 5a]	human recombinant COX-1 (Homo sapiens)	23
C[C@H]1[C@H](C)CC[C@]2(C)CC[C@]3(C)C(=CC[C@@H]4[C@@]5(C)CC[C@@H](O)[C@](C)(C(=O)O)[C@@H]5CC[C@]43C)[C@H]12 [β-Boswellic acid, reference compound]	human recombinant COX-1 (Homo sapiens)	18

Recorded Selectivity IC50 COX-1/IC50 COX-2 (molecule O=C(c1ccc(F)cc1)C1C(c2cc3ccccc3o2)C2CSCN2[C@@]12C(=O)Nc1ccc(Cl)cc12 (stereo partly drawn) [Compound 5c] ): 49

From: paper PMC7182988
